B1: Azoarcus group I ribozyme (parent)
chain: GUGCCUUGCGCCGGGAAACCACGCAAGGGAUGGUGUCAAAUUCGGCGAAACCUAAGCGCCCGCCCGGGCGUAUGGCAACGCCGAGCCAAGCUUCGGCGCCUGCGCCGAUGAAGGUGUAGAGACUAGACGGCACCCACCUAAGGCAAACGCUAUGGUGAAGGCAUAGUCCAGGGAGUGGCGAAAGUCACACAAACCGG

- Variants of: B1
- PROTOCOL TEXT: reverse-splicing fitness (ratio to wild type); higher = more active; in vitro selection; Mg2+ level not given

- MUTATION NOTATION: "C82U A111U A120G A145C C150G C169U U176G"
  reverse-splicing fitness: 0.00495
- MUTATION NOTATION: "C82A A111U A120G C150G C169A"
  reverse-splicing fitness: 0.00926
- MUTATION NOTATION: "C82U A111C A120U C150G C169A U176G"
  reverse-splicing fitness: 0.00261
- MUTATION NOTATION: "C82U A111G A120G A145G U176C"
  reverse-splicing fitness: 0.0192
- MUTATION NOTATION: "C82U A111G A120U A145G C150G C169A"
  reverse-splicing fitness: 0.00768
- MUTATION NOTATION: "C82A A120C A145U C150A C169A U176A"
  reverse-splicing fitness: 0.0198
- MUTATION NOTATION: "A111G A120U A145G C150G C169A U176A"
  reverse-splicing fitness: 0.00856
- MUTATION NOTATION: "C82U A111U C150U C169U U176A"
  reverse-splicing fitness: 0.0149
- MUTATION NOTATION: "A111U A120G C150G C169G"
  reverse-splicing fitness: 0.018
- MUTATION NOTATION: "A111U C150G U176A"
  reverse-splicing fitness: 0.0805
- MUTATION NOTATION: "C82U A111C C169G U176C"
  reverse-splicing fitness: 0.024
- MUTATION NOTATION: "C82U A145G C150G C169A U176C"
  reverse-splicing fitness: 0.0125
- MUTATION NOTATION: "C82U A111U A120C A145U C150U U176G"
  reverse-splicing fitness: 0.0051
- MUTATION NOTATION: "C82U A111G A145G C150A C169A"
  reverse-splicing fitness: 0.0102
- MUTATION NOTATION: "C82G A120U C150A C169G U176A"
  reverse-splicing fitness: 0.00631
- MUTATION NOTATION: "A111U A120U A145C C150A C169G"
  reverse-splicing fitness: 0.00394
- MUTATION NOTATION: "C82U A145U C150U C169A U176A"
  reverse-splicing fitness: 0.0115
- MUTATION NOTATION: "C82A A111U A120G C150A U176C"
  reverse-splicing fitness: 0.0188
- MUTATION NOTATION: "C82G A111C A120C A145G C150G C169U U176C"
  reverse-splicing fitness: 0.0117
- MUTATION NOTATION: "C82G A111C C150U C169A"
  reverse-splicing fitness: 0.0113
- MUTATION NOTATION: "C82A A111U A145C C150U U176A"
  reverse-splicing fitness: 0.0254
- MUTATION NOTATION: "C82U A111C A120U A145U C150G C169G U176A"
  reverse-splicing fitness: 0.00332

Where do these numbers come from? They come from the RNAGym collection of RNA variant scans (doi:10.1093/molbev/msab373).
